Values compiled from patent US20210171576A1.

TARGET UNDER TEST: human mitochondrial CIpP (HsCIpP) (Homo sapiens, UniProt Q16740)
Construct: made in house; host or cells: E. coli SG1146 (BL21(DE3) ΔclpP::cat)
Sequence (Q16740 57-277): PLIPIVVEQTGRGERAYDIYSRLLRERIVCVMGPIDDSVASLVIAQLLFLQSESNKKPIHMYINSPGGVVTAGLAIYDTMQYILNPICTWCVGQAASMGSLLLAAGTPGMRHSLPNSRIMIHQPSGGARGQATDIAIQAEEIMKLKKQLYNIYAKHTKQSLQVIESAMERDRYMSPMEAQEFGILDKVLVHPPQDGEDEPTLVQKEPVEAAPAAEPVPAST
ASSAY EXPLANATION: Screen of ADEP analogs against HsCIpP: relative degradation (RD) index, casein-FITC degradation relative to E. coli CIpAP
Assay type: biochemical
Set-up: key: casein-FITC degradation by HsClpP relative to EcClpAP
EXPERIMENTAL CONTEXT: RD value at 25 μM of the ADEP analog; measure of ability to activate HsCIpP
Where a SMILES comes first, the peptide text is derived from it. Bridges are numbered along the chain shown (N, C = ends). [ ]: non-standard residue; d: D form. The star is where a group is joined. Hexadienoyl(2E,4E) = C/C=C/C=C/C(=O)*; Pro(4R-Me) = C[C@H]1CN[C@H](C(=O)O)C1; NMeA = CN[C@@H](C)C(=O)O

MOLECULE | Hs RD25
C/C=C/C=C/C(=O)N[C@@H](Cc1ccccc1)C(=O)N[C@H]1COC(=O)[C@@H]2C[C@@H](C)CN2C(=O)[C@H](C)NC(=O)[C@H](C)N(C)C(=O)[C@@H]2CCCN2C1=O [ADEP-03] ({Hexadienoyl(2E,4E)}-FSP[NMeA]A[Pro(4R-Me)]; ester 2-C) | 0.66
CCCC/C=C/C(=O)N[C@@H](Cc1ccccc1)C(=O)N[C@H]1COC(=O)[C@@H]2C[C@@H](C)CN2C(=O)[C@H](C)NC(=O)[C@@H]2CCCCN2C(=O)[C@@H]2CCCN2C1=O [ADEP-10] | 1.07
